biological target: BTK (Homo sapiens); test: Degradation of BTK protein in Namalwa cells (Western blot; DC50, Dmax)
Sequence (Q06187 whole entry): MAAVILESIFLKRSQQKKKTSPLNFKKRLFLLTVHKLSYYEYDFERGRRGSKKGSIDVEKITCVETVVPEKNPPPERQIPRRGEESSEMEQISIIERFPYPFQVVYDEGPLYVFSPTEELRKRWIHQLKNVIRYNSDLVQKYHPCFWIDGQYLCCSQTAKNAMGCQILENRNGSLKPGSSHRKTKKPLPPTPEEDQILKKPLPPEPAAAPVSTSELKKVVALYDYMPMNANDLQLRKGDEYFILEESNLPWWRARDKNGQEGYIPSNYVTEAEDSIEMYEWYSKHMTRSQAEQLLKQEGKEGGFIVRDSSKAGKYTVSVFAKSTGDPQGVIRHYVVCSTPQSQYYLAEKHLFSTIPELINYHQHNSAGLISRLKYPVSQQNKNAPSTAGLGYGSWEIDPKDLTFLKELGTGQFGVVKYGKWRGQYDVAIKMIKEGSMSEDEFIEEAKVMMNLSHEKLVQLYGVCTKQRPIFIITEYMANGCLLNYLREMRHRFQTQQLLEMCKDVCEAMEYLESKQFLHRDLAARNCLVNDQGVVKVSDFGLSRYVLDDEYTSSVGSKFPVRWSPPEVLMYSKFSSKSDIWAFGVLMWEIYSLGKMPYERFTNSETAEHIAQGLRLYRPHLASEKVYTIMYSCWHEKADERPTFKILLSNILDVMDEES
recorded endpoint: Dmax

Before answering, review these 3 worked examples.
NC(=O)c1c(-c2ccc(Oc3ccccc3)cc2)nn2c1NCC[C@H]2C1CCN(C2CCN(CCC3CCN(c4ccc5c(c4)C(=O)N(C4CCC(=O)NC4=O)C5=O)CC3)CC2)CC1 (some centres unmarked) = > 90%
NC(=O)c1c(-c2ccc(Oc3ccccc3)cc2)nn2c1NCC[C@H]2C1CCN(C2CCN(C(=O)N3CCN(C4CCN(c5ccc6c(c5)CN(C5CCC(=O)NC5=O)C6=O)CC4)CC3)CC2)CC1 (some centres unmarked) = > 90%
Nc1ncnc2c1c(-c1ccc(Oc3ccccc3)cc1)nn2C1CCN(C2CCN(C(=O)N3CCC(CCCN4CCN(c5ccc6c(c5)CN(C5CCC(=O)NC5=O)C6=O)CC4)CC3)CC2)CC1 (centres unmarked) = > 75%

// query Dmax value for entry Nc1ncnc2c1c(-c1ccc(Oc3ccccc3)cc1)nn2C1CCN(C2CCN(C(=O)N3CCC(CCN4CCC(c5ccc6c(c5)C(=O)N(C5CCC(=O)NC5=O)C6=O)CC4)CC3)CC2)CC1 (centres unmarked) > 90%

// query Dmax value for entry Nc1ncnc2c1c(-c1ccc(Oc3ccccc3)cc1)nn2[C@@H]1CCCN(C2CCN(C(=O)N3CCC(CCCN4CCC(c5ccc6c(c5)C(=O)N(C5CCC(=O)NC5=O)C6=O)CC4)CC3)CC2)C1 (some centres unmarked) > 75%
